Entries annotated with measured pest or weed control at 50 µg/cm2
Tested on: Cabbage Looper (Trichoplusia ni, TRIPNI)
Assay: Bioassays on Cabbage Looper (CL), 128-well diet tray assay
Format: in vivo
Settings: Trichoplusia ni; Cabbage Looper; rating class; read-out: CL

- molecule: "O=C(Nc1ccc(F)c(NC(=O)C(F)F)c1F)c1cc(NC(=O)[C@H]2[C@H](c3cccc(Br)c3)C2(Cl)Cl)ccc1Cl (relative stereo) [F1600]"
  pest or weed control at 50 µg/cm2: "50 to 100%"
- molecule: "O=C(Nc1ccc(F)c(NC(=O)[C@H]2CCCN2)c1F)c1cc(NC(=O)[C@H]2[C@H](c3ccc(Cl)c(Cl)c3)C2(Cl)Cl)ccc1Cl [F1663]"
  pest or weed control at 50 µg/cm2: "50 to 100%"
- molecule: "CCCC(=O)Nc1c(F)ccc(NC(=O)c2cc(NC(=O)[C@H]3[C@H](c4ccc(F)c(Cl)c4)C3(Cl)Cl)ccc2Cl)c1F [F1705]"
  pest or weed control at 50 µg/cm2: "50 to 100%"

* * *

System: Beet Armyworm (Spodoptera exigua, LAPHEG)
Assay: Bioassays on Beet Armyworm (BAW), 128-well diet tray assay
Format: in vivo
Conditions: Spodoptera exigua; Table ABC: Biological Results; species BAW; read-out: BAW
Procedure: Certain molecules disclosed in this document were tested against BAW and CL using procedures described in the following examples. In the reporting of the results, the “BAW & CL Rating Table” was used (See Table Section). Bioassays on BAW were conducted using a 128-well diet tray assay. […] Percent mortality was recorded for the larvae in each well; activity in the eight wells was then averaged. […]

- molecule: "Cc1cc(NCc2ccc(NC(=O)OC(C)(C)C)cc2)ccc1NC(=O)c1cc(NC(=O)[C@H]2[C@H](c3cc(Cl)cc(Cl)c3)C2(Cl)Cl)ccc1Cl (relative stereo)"
  tested system: "Beet Armyworm (Spodoptera exigua, LAPHEG)"
  pest or weed control at 50 µg/cm2: "50 to 100%"
- molecule: "O=C(Nc1ccc(F)c(NC(=O)C(Cl)Cl)c1F)c1cc(NC(=O)[C@H]2[C@H](c3ccc(Cl)c(Cl)c3)C2(Cl)Cl)ccc1Cl"
  tested system: "Beet Armyworm (Spodoptera exigua, LAPHEG)"
  pest or weed control at 50 µg/cm2: "50 to 100%"
- molecule: "Nc1c(F)ccc(NC(=O)c2cc(NC(=O)[C@H]3[C@H](c4cc(Br)cc(S(F)(F)(F)(F)F)c4)C3(Cl)Cl)ccc2Cl)c1F (relative stereo)"
  tested system: "Beet Armyworm (Spodoptera exigua, LAPHEG)"
  pest or weed control at 50 µg/cm2: "50 to 100%"

* * *

System: Beet Armyworm (Spodoptera exigua, LAPHEG)
Test: Bioassays on Beet Armyworm (BAW), 128-well diet tray assay
Type: in vivo
Conditions: Spodoptera exigua; Table ABC: Biological Results; species BAW; read-out: BAW

- molecule: "O=C(Nc1ccc(F)cc1)c1cc(NC(=O)[C@H]2[C@H](c3ccc(F)c(Cl)c3)C2(Cl)Cl)cc(C(F)(F)F)c1Cl (relative stereo) [F1214]"
  tested system: "Beet Armyworm (Spodoptera exigua, LAPHEG)"
  pest or weed control at 50 µg/cm2: "50 to 100%"
- molecule: "Nc1cc(F)c(NC(=O)c2cc(NC(=O)[C@H]3[C@H](c4ccc(F)c(Cl)c4)C3(Cl)Cl)ccc2Cl)c(F)c1 [F1030]"
  tested system: "Beet Armyworm (Spodoptera exigua, LAPHEG)"
  pest or weed control at 50 µg/cm2: "50 to 100%"
- molecule: "Nc1ccc(F)c(NC(=O)c2cc(NC(=O)[C@H]3[C@H](c4cc(Cl)cc(Cl)c4)C3(Cl)Cl)ccc2Cl)c1F (relative stereo) [F1026]"
  tested system: "Beet Armyworm (Spodoptera exigua, LAPHEG)"
  pest or weed control at 50 µg/cm2: "50 to 100%"
- molecule: "C#CCN(C(=O)c1cc(NC(=O)[C@H]2[C@H](c3cc(Cl)cc(Cl)c3)C2(Cl)Cl)ccc1Cl)c1ccc(F)cc1C#N (relative stereo) [F1072]"
  tested system: "Beet Armyworm (Spodoptera exigua, LAPHEG)"
  pest or weed control at 50 µg/cm2: "50 to 100%"
- molecule: "Nc1cc(NC(=O)c2cc(NC(=O)[C@H]3[C@H](c4ccc(F)c(Cl)c4)C3(Cl)Cl)ccc2Cl)ccc1Cl (relative stereo) [F1365]"
  tested system: "Beet Armyworm (Spodoptera exigua, LAPHEG)"
  pest or weed control at 50 µg/cm2: "50 to 100%"
- molecule: "Cc1c(N)ccc(NC(=O)c2cc(NC(=O)[C@H]3[C@H](c4ccc(F)c(C(F)(F)F)c4)C3(Cl)Cl)ccc2Cl)c1C [F1389]"
  tested system: "Beet Armyworm (Spodoptera exigua, LAPHEG)"
  pest or weed control at 50 µg/cm2: "50 to 100%"
